From: patent US8778927B2

system: resistant medulloblastoma tumor cells; experiment: ex-vivo medulloblastoma proliferation assay (3H thymidine, 48 h), resistant tumor cells; format: cell-based, mouse; conditions: Mus musculus, Resistant tumor, Table 3
Hi there, I'd appreciate the recorded pIC50 for every entry that follows.
Here pIC50 is given on a logarithmic scale as minus log10 of the concentration in mol/L.

q: Requested field: pIC50. Item: Nc1cc(C(F)(F)F)c(-c2cc(N3CCOCC3)nc(N3CCOCC3)n2)cn1 [Compound A]
a: 6.66

q: Thanks! And CCC(C)(C)C(=O)O[C@H]1C[C@@H](C)C=C2C=C[C@H](C)[C@H](CC[C@@H]3C[C@@H](O)CC(=O)O3)[C@H]21 [Simvastatin, reference compound] ?
a: 8.40

---

system: sensitive medulloblastoma tumor cells; test: ex-vivo medulloblastoma proliferation assay (3H thymidine, 48 h), sensitive tumor cells; type: cell-based; details: Mus musculus, sensitive tumor cells, text b482
PARAMETER: pIC50
Here pIC50 is given on a logarithmic scale as minus log10 of the concentration in mol/L.

q: Requested field: pIC50. Item: Cc1c(C(=O)Nc2ccc(N3C[C@@H](C)O[C@@H](C)C3)nc2)cccc1-c1ccc(OC(F)(F)F)cc1 [Compound 1]
a: 8.40
